# System: HCC1806
# PROTOCOL TEXT: Antiproliferation activity against human HCC1806 cells assessed as inhibition of cell proliferation
# Type: functional, cell-based

>  <MOLECULE>
O=C(O)[C@]1(Cc2cccc(Nc3nccs3)n2)CC[C@@H](Oc2cccc(Cl)c2F)CC1 [MK-5108]

>  <TARGET ENTITY>
HCC1806

>  <UNIT OF MEASURE>
nM

>  <IC50>
560

$$$$

---

# TARGET ENTITY: Aurora kinase B (Homo sapiens, UniProt Q96GD4)
# Sequence (Q96GD4 whole entry): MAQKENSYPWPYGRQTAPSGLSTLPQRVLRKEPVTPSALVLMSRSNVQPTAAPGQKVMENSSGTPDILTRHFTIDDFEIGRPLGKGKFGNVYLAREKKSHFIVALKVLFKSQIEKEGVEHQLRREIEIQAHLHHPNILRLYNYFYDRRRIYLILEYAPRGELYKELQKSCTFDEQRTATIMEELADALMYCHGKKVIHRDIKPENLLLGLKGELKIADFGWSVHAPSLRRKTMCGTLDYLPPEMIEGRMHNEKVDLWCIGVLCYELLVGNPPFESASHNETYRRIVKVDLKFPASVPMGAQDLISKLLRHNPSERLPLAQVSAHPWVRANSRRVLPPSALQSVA
# PROTOCOL TEXT: Inhibition of aurora B in human MDA-MB-231 cells assessed as reduction in phosphorylation of histone H3 on Ser10 incubated for 4 hrs by high-content immunofluorescence imaging
# Format: cell-based

>  <MOLECULE>
CC(=O)NCC(=O)N1[C@@H]2CC[C@H]1c1ccc(Nc3ncc(C(F)(F)F)c(NC4CCC4)n3)cc12 [PF-03814735]

>  <TARGET ENTITY>
Aurora kinase B (Homo sapiens, UniProt Q96GD4)

>  <IC50>
50 nM

$$$$

---

# TARGET ENTITY: Aurora kinase A (Homo sapiens)
# Sequence (O14965 whole entry): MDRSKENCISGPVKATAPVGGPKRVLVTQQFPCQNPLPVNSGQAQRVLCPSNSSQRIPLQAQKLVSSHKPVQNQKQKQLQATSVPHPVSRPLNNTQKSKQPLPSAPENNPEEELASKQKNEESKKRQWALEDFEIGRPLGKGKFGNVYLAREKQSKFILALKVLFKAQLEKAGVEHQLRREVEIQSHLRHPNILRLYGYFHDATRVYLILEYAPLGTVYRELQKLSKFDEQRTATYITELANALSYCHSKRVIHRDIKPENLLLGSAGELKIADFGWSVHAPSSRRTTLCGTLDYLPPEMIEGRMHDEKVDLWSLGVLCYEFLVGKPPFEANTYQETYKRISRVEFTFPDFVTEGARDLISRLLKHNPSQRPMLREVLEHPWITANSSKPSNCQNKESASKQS
# PROTOCOL TEXT: Inhibition of Aurora A kinase (unknown origin)
pIC50: −log10 of the molar value.

>  <SMILES INPUT>
O=C1c2[nH]c3cc(-c4ccco4)nn3c(=O)c2CN1Cc1ccccc1

>  <TARGET ENTITY>
Aurora kinase A (Homo sapiens)

>  <pIC50>
6.25

$$$$

---

# TARGET ENTITY: Aurora kinase B/Inner centromere protein (Homo sapiens, UniProt Q96GD4)
# Sequence (Q96GD4 whole entry): as the sequence (Q96GD4 whole entry) above
# Sequence (Q9NQS7 whole entry, further chain): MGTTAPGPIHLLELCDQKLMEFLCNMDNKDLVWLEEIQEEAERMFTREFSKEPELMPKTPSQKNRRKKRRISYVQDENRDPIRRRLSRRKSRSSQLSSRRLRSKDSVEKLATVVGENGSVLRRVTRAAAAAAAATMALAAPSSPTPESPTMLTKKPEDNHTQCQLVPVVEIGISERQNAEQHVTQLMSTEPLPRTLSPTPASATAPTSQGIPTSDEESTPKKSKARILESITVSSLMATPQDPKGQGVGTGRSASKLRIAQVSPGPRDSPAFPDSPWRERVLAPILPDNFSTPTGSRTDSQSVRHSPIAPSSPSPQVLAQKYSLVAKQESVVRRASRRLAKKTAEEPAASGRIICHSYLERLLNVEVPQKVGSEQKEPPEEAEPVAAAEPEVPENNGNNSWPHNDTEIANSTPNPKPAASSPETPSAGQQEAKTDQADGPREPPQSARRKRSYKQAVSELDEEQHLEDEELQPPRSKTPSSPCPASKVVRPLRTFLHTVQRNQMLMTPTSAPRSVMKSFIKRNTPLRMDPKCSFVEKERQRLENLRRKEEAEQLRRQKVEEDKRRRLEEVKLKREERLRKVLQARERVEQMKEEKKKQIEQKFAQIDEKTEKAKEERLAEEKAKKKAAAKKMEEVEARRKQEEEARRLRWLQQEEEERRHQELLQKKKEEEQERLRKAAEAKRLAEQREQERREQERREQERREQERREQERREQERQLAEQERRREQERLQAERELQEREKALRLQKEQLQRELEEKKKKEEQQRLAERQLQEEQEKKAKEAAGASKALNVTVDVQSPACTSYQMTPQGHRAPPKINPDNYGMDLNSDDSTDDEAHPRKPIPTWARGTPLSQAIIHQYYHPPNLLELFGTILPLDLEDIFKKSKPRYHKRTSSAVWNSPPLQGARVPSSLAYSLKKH
# PROTOCOL TEXT: Inhibition of Aurora B/INCENP (unknown origin) assessed as affinity constant pre-incubated for 1 hr followed by FL-PKAtide substrate and ATP addition
ENDPOINT: Ki (nM)

>  <SMILES INPUT>
CCS(=O)(=O)c1cccc(-c2cc(C(=O)NC3CCN(C)CC3)c(C)c3[nH]c4ncc(C)cc4c23)c1

>  <UNIT OF MEASURE>
nM

>  <QUANTITATIVE RESULT>
0.02

$$$$

---

# TARGET ENTITY: Aurora kinase A (Homo sapiens, UniProt O14965)
# PROTOCOL TEXT: Inhibition of recombinant aurora 2 (unknown origin) expressed in Sf21 insect cells incubated for 60 mins using [biotin LRRWSLGLRRWSLGLRRWSLGLRRWSLG substrate and [gamma33P]ATP by beta plate counting method

>  <SMILES INPUT>
COc1cc2c(Nc3ccc(C(=O)Nc4ccccc4)cc3)ncnc2cc1O

>  <IC50 / nM>
60

$$$$
